- Test system: HTT mRNA
- methodDescription: RT-qPCR splicing assay, HTT canonical junction (CJ) and alternative junction (AJ) mRNA
- Format: cell-based, human
- experimentalContext: Homo sapiens; Table 5 panel; canonical junction qPCR; compound concentration having 50% response in CJ decrease; read-out: HTT IC50 (decrease in CJ mRNA levels)
Below is a list of entries, each paired with its recorded IC50 value.

> print(dat)
                                   compound  assaytarget  metric    recordedresult
1  Cn1cc2cc(-n3cnc4cc(C5=CC6CCC(C5)N6)ccc4c3=O)ccc2n1 (centres unmarked) [Compound 160]     HTT mRNA    IC50        > 10000 nM
2  Cc1cn2nc(-c3ccn4c(=O)c(C5=CCNCC5)ncc4c3)cc(C)c2n1 [Compound 1182]     HTT mRNA    IC50    100 to 1000 nM
3  CNc1cc(-c2cc(F)c3nc(C)cn3c2)cc2ncn(C3CCNCC3)c(=O)c12 [Compound 358]     HTT mRNA    IC50  1000 to 10000 nM
4  Cc1cn2cc(-c3cc(F)c4c(=O)n(C5CCNCC5)cnc4c3)nc2c(C)n1 [Compound 319]     HTT mRNA    IC50  1000 to 10000 nM
5  Cc1cn2nc(-c3cc(O)c4c(=O)n(C5CCNCC5)ncc4c3)cc(C)c2n1 [Compound 541]     HTT mRNA    IC50          < 100 nM
6  Cc1cn2nc(-c3ccc4c(=O)n(C5CCNCC5)ccc4c3)cc(CC(N)=O)c2n1 [Compound 528]     HTT mRNA    IC50    100 to 1000 nM
7  Cc1nc2c(C)cc(-c3ccc4c(=O)n(C5CCNC6(CC6)C5)ncc4c3)cc2o1 (centres unmarked) [Compound 513]     HTT mRNA    IC50    100 to 1000 nM
8  Cc1cn2nc(-c3cc(F)c4c(=O)n(C5CCN(CCF)CC5)ncc4c3)cc(C)c2n1 [Compound 538]     HTT mRNA    IC50          < 100 nM

Determine from records and report IC50 for Cn1ccc2c(cnn2-c2ccc3c(=O)n(C4CCNCC4)ccc3c2)c1=O [Compound 521]
1000 to 10000 nM

Respond only with IC50 recorded for Cc1cc(-c2ccc3c(=O)n(C4CCNC5(CC5)C4)ncc3c2)cc2cn(C)nc12 (centres unmarked) [Compound 512]
100 to 1000 nM

Return IC50 (reported value) for this compound: Cc1cn2cc(-c3ccc4c(c3)CCN(C3CCNCC3)C4=O)cc(Cl)c2n1 [Compound 216]
1000 to 10000 nM

Quickly give me recorded IC50 for Cc1cc(-c2cc(F)c3c(=O)n(C4CCNC5(CC5)C4)cnc3c2)nc2cn(C)nc12 (centres unmarked) [Compound 361]
< 100 nM

Give the reported value of IC50 for this record: Cc1cn2nc(-c3ccc4c(=O)n(C5CCN(C)CC5)ccc4c3)cc(C)c2n1 [Compound 310]
100 to 1000 nM

Give IC50 for CN1C2C=C(c3ccc4c(=O)n(-c5ccc6nn(C)cc6c5)cnc4c3)CC1CC2 (centres unmarked) [Compound 161]
> 10000 nM

###

- Tested on: Target C
- methodDescription: RT-qPCR splicing assay panel, Target C canonical junction (CJ) mRNA
- Format: cell-based, human
- experimentalContext: Homo sapiens, read-out: Target C (decrease in CJ mRNA levels, IC50)
metric: IC50

Give IC50 for Cc1cn2nc(-c3ccc4c(=O)n(C5CCN(C6CCC6)C6(CC6)C5)ncc4n3)cc(C)c2n1 (stereo not shown) [Compound 1540] tested on Target C.
100 to 1000 nM
